measurement.target: HLA-A*02:03
assay.notes: IEDB peptide-MHC binding, purified MHC/competitive/fluorescence; filed as Kd, often an IC50 or EC50 that approximates it; bounds were set here for any values at or beyond the usual limits of such assays
test.settings: source organism: Yersinia pestis Nepal516
measured.quantity: Kd

[Q] Using the record for `LELIGNAES` , state its measured Kd.
[A] ≥ 20 µM

----------
measurement.target: HLA-A*68:01
assay.notes: IEDB peptide-MHC binding, purified MHC/competitive/radioactivity; filed as Kd, often an IC50 or EC50 that approximates it; bounds were set here for any values at or beyond the usual limits of such assays
test.settings: source organism: Mammarenavirus juninense
measured.quantity: Kd

[Q] Using the record for `EKYGHLCKYH` , state its measured Kd.
[A] ≥ 70.1 µM

----------
Record form. Attribute: Kd. Fill in for each entry.
measurement.target: HLA-A*02:06
assay.notes: IEDB peptide-MHC binding, purified MHC/competitive/radioactivity; filed as Kd, often an IC50 or EC50 that approximates it; bounds were set here for any values at or beyond the usual limits of such assays
test.settings: source organism: Trypanosoma cruzi

sequence.text	Kd
SLSHDFTLV	7.74 nM

[Q] Using the record for `LLGLWGFAAQ` , state its measured Kd.
[A] 462 nM

----------
measurement.target: HLA-A*01:01
assay.notes: IEDB peptide-MHC binding, purified MHC/direct/fluorescence; filed as Kd, often an IC50 or EC50 that approximates it; bounds were set here for any values at or beyond the usual limits of such assays
test.settings: source organism: Camelpox virus M-96
pKd: −log10 of the molar value.
measured.quantity: pKd

Here is how some sequences turned out for pKd.
sequence.text	pKd
NYFNRMFHF	≤ 4.70
SQIETGTPF	≤ 4.70

[Q] Using the record for `KYFDDVTAF` , state its measured pKd.
[A] ≤ 4.70

----------
measurement.target: HLA-A*24:02
assay.notes: IEDB peptide-MHC binding, purified MHC/competitive/fluorescence; bounds were set here for any values at or beyond the usual limits of such assays
test.settings: source organism: Variola virus
measured.quantity: IC50 (µM)
Numbers only, in µM.

sequence.text	measurement.target	unit.info	IC50
VHEHDQIGD	HLA-A*24:02	µM	1.87

[Q] Using the record for `HEHDQIGDI` , state its measured IC50.
[A] 23.8

----------
Record form. Attribute: Kd. Fill in for each entry.
measurement.target: HLA-B*35:01
assay.notes: IEDB peptide-MHC binding, purified MHC/competitive/radioactivity; filed as Kd, often an IC50 or EC50 that approximates it; bounds were set here for any values at or beyond the usual limits of such assays
test.settings: source organism: Vaccinia virus WR

sequence.text	Kd
RVYEALYYV	≥ 77.4 µM
DPTFQLLNM	1.13 µM
SPPLISILMI	≥ 69.9 µM

Please examine the following record next.
[Q] Using the record for `SPPIPMSRL` , state its measured Kd.
[A] ≥ 53.1 µM

----------
measurement.target: HLA-B*08:01
assay.notes: IEDB peptide-MHC binding, purified MHC/direct/fluorescence; filed as Kd, often an IC50 or EC50 that approximates it; bounds were set here for any values at or beyond the usual limits of such assays
test.settings: source organism: Escherichia coli O157:H7
measured.quantity: Kd

[Q] Using the record for `VVPLYDTPL` , state its measured Kd.
[A] ≥ 20 µM

----------
measurement.target: HLA-A*02:01
assay.notes: IEDB peptide-MHC binding, purified MHC/competitive/radioactivity; filed as Kd, often an IC50 or EC50 that approximates it; bounds were set here for any values at or beyond the usual limits of such assays
test.settings: source organism: Dengue virus 2 Jamaica/1409/1983
measured.quantity: pKd
One number for each entry, as −log10 of the molar value.

sequence.text	numeric.value
FLDLPLPWL	7.99
ILLTAVAPSM	5.60
FLNEDHWFS	8.40

Please examine the following record next.
[Q] Using the record for `YQLAVTIMAI` , state its measured pKd.
[A] 7.49

Data origin: the Immune Epitope Database (IEDB)
